Give pIC50 for every item shown.
experimental_system: sodium-proton exchanger of subtype 3 (NHE3) (Homo sapiens)
Construct: expressed in transfected cells
assay_explanation: Recovery of intracellular pH (pHi) after acidification in LAP1 cells stably expressing NHE3 (BCECF fluorescence, FLIPR)
Assay type: cell-based
condition_details: LAP1 cells stably expressing NHE3; pH recovery after acidification; range 1 is % inhibition at 10 μM; read-out: Activity range (inhibitory effect on NHE3)
pIC50: −log10 of the molar value.

Examples with their reported pIC50 follow.
>  <molecule>
N#Cc1ccc(O[C@H]2c3cc(Cl)cc(Cl)c3C[C@@H]2N2CCC[C@@H](N)C2)c(F)c1

>  <experimental_endpoint>
pIC50

>  <observed_value>
> 6.00

$$$$
>  <molecule>
Cc1c(Cl)cccc1O[C@@H]1c2ccccc2C[C@H]1N1CCC(CN)C1 (mixture of isomers)

>  <experimental_endpoint>
pIC50

>  <observed_value>
5.00 to 6.00

$$$$
>  <molecule>
CN(C1CCCNC1)[C@@H]1Cc2ccccc2[C@H]1Oc1ccc(S(N)(=O)=O)c(Cl)c1Cl (mixture of isomers)

>  <experimental_endpoint>
pIC50

>  <observed_value>
5.00 to 6.00

$$$$

# input for lookup
Ask: Request the reported pIC50 associated with N#Cc1ccc(O[C@@H]2c3ccccc3C[C@H]2N2CCC[C@@H](N)C2)cc1F (racemic)
Result: 5.00 to 6.00

----------
experimental_system: sodium-proton exchanger of subtype 3 (NHE3) (Homo sapiens, UniProt P48764)
Construct: expressed in transfected cells
Sequence (P48764 26-834, species assumed): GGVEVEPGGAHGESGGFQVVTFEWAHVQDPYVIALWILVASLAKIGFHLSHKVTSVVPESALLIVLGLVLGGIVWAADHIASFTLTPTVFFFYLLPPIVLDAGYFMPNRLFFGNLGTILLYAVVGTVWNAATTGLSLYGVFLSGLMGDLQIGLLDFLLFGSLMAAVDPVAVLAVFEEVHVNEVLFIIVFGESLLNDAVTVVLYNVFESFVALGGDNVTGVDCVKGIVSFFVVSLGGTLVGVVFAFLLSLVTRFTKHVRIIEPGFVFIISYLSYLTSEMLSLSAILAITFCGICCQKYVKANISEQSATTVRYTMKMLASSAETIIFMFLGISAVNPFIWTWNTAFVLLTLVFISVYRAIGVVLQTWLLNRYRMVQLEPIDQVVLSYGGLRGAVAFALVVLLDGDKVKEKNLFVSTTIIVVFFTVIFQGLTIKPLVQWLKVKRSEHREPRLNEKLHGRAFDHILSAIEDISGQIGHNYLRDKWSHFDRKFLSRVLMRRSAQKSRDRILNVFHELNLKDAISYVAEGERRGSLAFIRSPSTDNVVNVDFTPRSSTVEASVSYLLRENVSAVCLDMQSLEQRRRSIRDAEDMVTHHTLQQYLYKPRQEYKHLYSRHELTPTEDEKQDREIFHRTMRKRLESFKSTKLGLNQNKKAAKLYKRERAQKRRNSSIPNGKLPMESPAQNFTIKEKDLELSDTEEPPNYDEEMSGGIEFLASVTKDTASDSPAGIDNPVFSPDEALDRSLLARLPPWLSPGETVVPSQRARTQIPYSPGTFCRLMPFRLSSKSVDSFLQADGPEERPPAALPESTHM
assay_explanation: Recovery of intracellular pH (pHi) after acidification in LAP1 cells stably expressing NHE3 (BCECF fluorescence, FLIPR)
Format: cell-based
condition_details: LAP1 cells stably expressing NHE3; pH recovery after acidification; range 1 is % inhibition at 10 μM; read-out: Activity range (inhibitory effect on NHE3)
pIC50: −log10 of the molar value.
experimental_endpoint: pIC50

Examples with their reported pIC50 follow.
>  <compound>
N[C@@H]1CCCN([C@H]2Cc3c(Cl)cc(Cl)cc3[C@@H]2Oc2ccc(S(N)(=O)=O)c(Cl)c2Cl)C1

>  <experimental_endpoint>
pIC50

>  <observed_value>
> 6.00

$$$$
>  <compound>
N[C@H]1CCCN([C@@H]2Cc3ccccc3[C@H]2Oc2cccc(N3CCNCC3)c2)C1 (racemic)

>  <experimental_endpoint>
pIC50

>  <observed_value>
> 6.00

$$$$
>  <compound>
N[C@@H]1CCCN([C@@H]2Cc3ccccc3[C@H]2Oc2ccc(-n3ccnc3)cc2)C1 (racemic)

>  <experimental_endpoint>
pIC50

>  <observed_value>
> 6.00

$$$$
>  <compound>
CC(=O)Nc1cccc(O[C@H]2c3cc(Cl)cc(Cl)c3C[C@@H]2N(C)C)c1 (racemic)

>  <experimental_endpoint>
pIC50

>  <observed_value>
5.00 to 6.00

$$$$
>  <compound>
COc1ccc(C)cc1O[C@@H]1c2ccccc2C[C@H]1N1CCC(CN)CC1 (racemic)

>  <experimental_endpoint>
pIC50

>  <observed_value>
5.00 to 6.00

$$$$
>  <compound>
COCCN1CCCN([C@H]2Cc3c(Cl)cc(Cl)cc3[C@@H]2Oc2ccc(S(C)(=O)=O)cc2)CC1

>  <experimental_endpoint>
pIC50

>  <observed_value>
> 6.00

$$$$

# input for lookup
Ask: Request the reported pIC50 associated with CN(C1CCCC1)[C@@H]1Cc2ccccc2[C@H]1Oc1ccc(S(C)(=O)=O)cc1 (racemic)
Result: 5.00 to 6.00
